Provenance of the data: patent US20160220527A1

# Tested on: OVCAR-3
# protocol-details: SRB cell proliferation assay
# Format: cell-based
# recorded-conditions: Table 3, AAD series, human epithelial ovarian cancer
Recorded IC50 values for a group of molecules are listed next.
observation-type: IC50 (µM)

* CC(C#N)(COc1ccccc1Cl)NC(=O)c1ccc(C(F)(F)F)cc1 (centres unmarked) | 23.9
* CC(C#N)(COc1cc(Cl)ccc1Cl)NC(=O)c1ccc(OC(F)(F)F)cc1 (centres unmarked) | 20.5

###

# System: LN-18
# protocol-details: SRB cell proliferation assay
# Type: cell-based
# recorded-conditions: Homo sapiens; LN-18, glioma
# Procedure: The human ovarian cancer cell lines OVCAR-3, SKOV-3 and A2780 and primary cells human umbilical vein endothelial cells (HUVEC) and all other cell lines were obtained from the American Type Culture Collection (ATCC) and maintained according to their instructions. […] Cell proliferation was assessed using the sulforhodamine B (SRB) assay. […] Bound SRB was solubilized with 100 μl of 10 mM Tris base (pH 10.5) and the absorbance read at 570 nm. […]
pIC50: −log10 of the molar value.
observation-type: pIC50

- C[C@](C#N)(COc1cc(C#N)ccc1C(F)(F)F)NC(=O)c1ccc(SC(F)(F)F)cc1 [MPL]: 5.03

###

# Test system: HUVEC
# protocol-details: SRB cell proliferation assay
# Format: cell-based
# recorded-conditions: Homo sapiens, Table 3, AAD series, human umbilical vein endothelial cells
observation-type: IC50 (µM)

* CC(C#N)(COc1cc(Cl)ccc1Cl)NC(=O)c1ccc(OC(F)(F)F)cc1 (centres unmarked) | 61.1
* CC(C#N)(COc1ccccc1Cl)NC(=O)c1ccc(C(F)(F)F)cc1 (centres unmarked) | 96.5

###

# Test system: HaCat
# protocol-details: SRB cell proliferation assay
# Type: cell-based
# recorded-conditions: Homo sapiens, keratinocyte
observation-type: IC50 (µM)

- C[C@](C#N)(COc1cc(C#N)ccc1C(F)(F)F)NC(=O)c1ccc(SC(F)(F)F)cc1 [MPL]: 21.2

###

# Test system: T98G
# protocol-details: SRB cell proliferation assay
# Assay type: cell-based
# recorded-conditions: Homo sapiens, glioma
observation-type: IC50 (µM)

- C[C@](C#N)(COc1cc(C#N)ccc1C(F)(F)F)NC(=O)c1ccc(SC(F)(F)F)cc1: 18.2
